B1: mRNA-splicing (parent)
chain: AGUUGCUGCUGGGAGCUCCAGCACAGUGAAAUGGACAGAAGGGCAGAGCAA

Variants of: B1
ASSAY NAME: exon inclusion enrichment index; higher = more inclusion; WT1 exon 5 minigene, HEK293

{"SEQUENCE INPUT": "AGUUUCUUUUCUGAGCUCCAGCACAGUGAAAUGGACAGAAGGGCAGAGCAA [G5U G8U C9U G11C G12U]", "exon inclusion enrichment index": 0.0163}
{"SEQUENCE INPUT": "AGUUCACACAGGGAGCUCCAGCACAGCCAAAUGGACAGAAGGGCAGAGCAA [G5C C6A U7C G8A U10A U27C G28C]", "exon inclusion enrichment index": 0.163}
{"SEQUENCE INPUT": "AGUUACCACCGGGAGUACCAGCACAGUGAAAUGGACAGAAGGGCAGAGCAA [G5A U7C G8A U10C C16U U17A]", "exon inclusion enrichment index": 1.74}
{"SEQUENCE INPUT": "AGUUGCUGCUGGGAGCUCCAGCACAUGGAAAUGGACAGAAGGGCAGAGCAA [G26U U27G]", "exon inclusion enrichment index": 0.394}
{"SEQUENCE INPUT": "AGUUAUAUAUGGGAGCUCCAGCACAGGAAAAUGGACAGAAGGGCAGAGCAA [G5A C6U U7A G8U C9A U27G G28A]", "exon inclusion enrichment index": 0.12}
{"SEQUENCE INPUT": "AGUUAGGGAUGGGAGCUCCAGCACAGUGACCUGGACAGAAGGGCAGAGCAA [G5A C6G U7G C9A A30C A31C]", "exon inclusion enrichment index": 0.00182}
